meta.source: paper PMC9482650

target: Inadl_2, Q8NI35; assay: holdup assay; design: key: below the threshold = too weak to quantify, mostly under pKd 3.1 to 4; conditions: plain residues with an end cap or a label only (N-terminal biotin on a linker: ado-ado)
Sequence (Q8NI35 238-335): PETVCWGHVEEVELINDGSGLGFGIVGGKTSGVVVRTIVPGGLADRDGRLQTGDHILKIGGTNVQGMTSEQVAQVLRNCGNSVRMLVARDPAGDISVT
measured.endpoint: pKd

// worked examples, pKd included
>>> result("ARSAAASNYV [CLDN4, O14493]")
"below the threshold"
>>> result("GTGYDRKDYV [CLDN3, O15551]")
"below the threshold"
>>> result("LPAVCYDIDI [PTTG2, Q9NZH5]")
"below the threshold"
>>> result("EDGESWEYQI [TRPV6, Q9H1D0]")
3.97
>>> result("NTANRRTTPV [CACNG2, Q9Y698]")
"below the threshold"
>>> result("LKDDELKTKL [SLCO1A2, P46721]")
"below the threshold"

Sample AQRARSPSDV [GPR12, P47775] ; pKd observed: below the threshold

Data point: QSYPSKHDYV [CLDN18, P56856] ; pKd = below the threshold

// SPDRDRESIV [SCN5A, Q14524] : pKd value = below the threshold
